# tested-system: PD-1/PD-L1 interaction (Homo sapiens (Human))
# Sequence (Q9NZQ7 19-238): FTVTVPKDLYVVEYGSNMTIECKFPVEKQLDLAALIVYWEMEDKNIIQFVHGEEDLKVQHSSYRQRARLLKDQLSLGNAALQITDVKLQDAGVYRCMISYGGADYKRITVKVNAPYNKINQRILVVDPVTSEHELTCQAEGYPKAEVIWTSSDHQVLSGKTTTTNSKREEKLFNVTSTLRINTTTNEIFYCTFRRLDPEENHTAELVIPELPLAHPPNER
# experimental-details: PD1-PDL1 HTRF binding activity test
# cond: Cisbio PD-1/PD-L1 binding assay kit
pIC50: −log10 of the molar value.
measure: pIC50

Known pIC50 results, listed for orientation:
Cc1c(NC(=O)c2cc(C3CC3)c(CNC34CCC(C(=O)O)(CC3)C4)cn2)cccc1-c1cccc(NC(=O)c2cc(C3CC3)c(CNC34CCC(C(=O)O)(CC3)C4)cn2)c1C [Example 2]    8.44
Cc1c(NC(=O)c2cc(C3CC3)c(CNCC34CCC(C(=O)O)(CC3)C4)cn2)cccc1-c1cccc(NC(=O)c2cc(C3CC3)c(CNCC34CCC(C(=O)O)(CC3)C4)cn2)c1C [Example 4]    8.84

P. Cc1c(NC(=O)c2cc(C3CC3)c(CN(C)C34CCC(C(=O)O)(CC3)C4)cn2)cccc1-c1cccc(NC(=O)c2cc(C3CC3)c(CN(C)C34CCC(C(=O)O)(CC3)C4)cn2)c1C [Example 3]
Q. Cc1c(NC(=O)c2cc(C3CC3)c(CNC34CCC(C(=O)O)(CC3)CC4)cn2)cccc1-c1cccc(NC(=O)c2cc(C3CC3)c(CNC34CCC(C(=O)O)(CC3)CC4)cn2)c1C [Example 1]
Query block: Between P and Q , whose measured pIC50 reads higher? The response must carry the label of the picked entry.
Result block: Q
(Q: 8.59, P: 8.34)

---

# experimental-details: Caco-2 membrane permeability test
# cond: human, Caco-2, pH 7.4
// Papp A→B at 90 min, 10 μM lookup, one value per entry

Known Papp A→B at 90 min, 10 μM results, listed for orientation:
Cc1c(NC(=O)c2cc(C3CC3)c(CNC34CCC(C(=O)O)(CC3)CC4)cn2)cccc1-c1cccc(NC(=O)c2cc(C3CC3)c(CNC34CCC(C(=O)O)(CC3)CC4)cn2)c1C [Example 1]    2.46 ×10⁻⁶ cm/s
Cc1c(NC(=O)c2cc(C3CC3)c(CNCC(=O)O)cn2)cccc1-c1cccc(NC(=O)c2cc(C3CC3)c(CNCC(=O)O)cn2)c1C [compound 4]    < 0.24 ×10⁻⁶ cm/s
COC(=O)[C@H]1CCN(Cc2cnc(C(=O)Nc3cccc(-c4cccc(NC(=O)c5cc(C6CC6)c(CN6CC[C@H](C(=O)OC)C6)cn5)c4C)c3C)cc2C2CC2)C1 [compound 5]    < 1.79 ×10⁻⁶ cm/s

Pending compound:
Query block: Give Papp A→B at 90 min, 10 μM for COC(=O)[C@@H](CO)NCc1cnc(C(=O)Nc2cccc(-c3cccc(NC(=O)c4cc(C5CC5)c(CN[C@H](CO)C(=O)OC)cn4)c3C)c2C)cc1C1CC1 [compound 1, reference compound]
Result block: < 2.28 ×10⁻⁶ cm/s
